Data provenance: paper PMC10796322

Molecular target: T1, Med25-ACID R568A (Arabidopsis thaliana, UniProt Q7XYY2 532-680, R568A)
T1 construct: Mediator complex subunit 25 (Med25), Arabidopsis thaliana, AT1G25540, ACID domain construct with Arg568 in loop L1 replaced by alanine; the only Med25-ACID construct described is 532-680; source: E. coli BL21 DE3, purified (glutathione Sepharose, TEV cleavage, cation exchange, SEC); not shown: GST, N-terminal, cleaved
T1 sequence (looked up): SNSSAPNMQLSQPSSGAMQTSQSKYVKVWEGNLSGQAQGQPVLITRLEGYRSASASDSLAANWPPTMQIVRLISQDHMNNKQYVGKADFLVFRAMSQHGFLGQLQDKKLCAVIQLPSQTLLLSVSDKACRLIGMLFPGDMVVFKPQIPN
Experiment: ITC; 25 °C; 50 mM HEPES pH 7.4, 100 mM NaCl, 0.5 mM TCEP; ~1:10 cell to syringe concentration ratio, cell around 15 µM for high-affinity fragments; one-set-of-sites model; which protein was in the cell is not stated
Settings: both partners purified
readout_kind: Kd (µM)
Numbers only, in µM.

Lookup result for QDSLSVADYGWPNDVDQSHLDSSDMFDVDELLRDLNGDDVFAG (domain or fragment, Arabidopsis thaliana, UniProt O82132 234-276, looked up, 13C,15N-labelled in the CEST experiments; Populates cis (30 ± 1%) and trans Trp244-Pro245 isomers in the free state; also called bivalent ABS-RIM fragment; source: E. coli BL21 DE3, purified (glutathione Sepharose, TEV cleavage, SEC); not shown: GST, N-terminal, cleaved) [DREB2A_(234-276) (ABS-RIM)] ; measured Kd: 3.1
